Data credit: PubChem BioAssay (NCI)

- Tested on: A549/ATCC NSCLC
- Assay details: NCI-60 one-dose screen, 48 h
- Condition summary: 10 µM unless noted
- Method: Growth inhibition of the A549/ATCC human Non-Small Cell Lung tumor cell line is measured as a screen for anti-cancer activity. Cells are grown in 96 well plates and exposed to the test compound for 48 hours. Compounds are tested at a single concentration, which is 10^-5 M for most compounds. The reported endpoint is percent growth (GI% or GIPRCNT), where numbers from 0 - 100% represent growth inhibition, and numbers from -100% - 0 represent cell death. […]
About 83,000 compounds went through this panel and 20% of them were active in at least one assay; those are over-represented in the sample as a whole. Calls of active or inactive are those of the source. The calls were made as follows: active = growth percent below 10; inactive = the rest.
Answer with one of the outcomes given here: active, inactive

Query string: I would be grateful if you could indicate the recorded call for Cc1cc(C)cc(CCCCCCCCCCCCCCCCCC(=O)O)c1 .
Result string: inactive

Query string: Please do the same for Fc1[nH]nc2ccc([C@@H]3Nc4ccc5[nH]ncc5c4[C@H]4C5CCC(C5)[C@@H]34)cc12 (stereo not given in full) as well.
Result string: inactive

Query string: Please do the same for C[C@@H]1C[C@H](N)C[C@H](c2ccncc2NC(=O)c2ccc(F)c(-c3c(F)cccc3F)n2)C1 as well.
Result string: inactive

Query string: Please do the same for CCCc1n(Cc2ccc3ccccc3c2)c2ccccc2[n+]1Cc1ccc2ccccc2c1 as well.
Result string: active

Query string: Please do the same for CCN(CC)CCCC(C)Nc1cnc(C(=O)Nc2cccc3ccc(OC)nc23)cn1 (stereo not given) as well.
Result string: inactive
